Assay: Pharmacokinetic study in rats (plasma, LC-MS/MS, NCA)
Conditions: male, Sprague-Dawley, rat, plasma, po, 50 mg/kg, t1/2, rats, single p.o. 50 mg/kg
measured_endpoint: half-life (h)

1. CC(=O)Nc1ccc(NC(=O)c2ccc(C(C)=O)o2)cc1 [Compound 25a]; 2.63

---

Assay: Pharmacokinetic study in rats (plasma, LC-MS/MS, NCA)
Details: male, Sprague-Dawley, rat, plasma, po, 50 mg/kg, Mean plasma concentration, rats, 1 h, single p.o. 50 mg/kg
measured_endpoint: concentration at 1 h (ng/mL)

1) CC(=O)Nc1ccc(NC(=O)c2ccc(C(C)=O)o2)cc1 [Compound 25a]; 429
